# study system: Solute carrier family 22 member 6 (Rattus norvegicus, UniProt O35956)
# Sequence (O35956 whole entry): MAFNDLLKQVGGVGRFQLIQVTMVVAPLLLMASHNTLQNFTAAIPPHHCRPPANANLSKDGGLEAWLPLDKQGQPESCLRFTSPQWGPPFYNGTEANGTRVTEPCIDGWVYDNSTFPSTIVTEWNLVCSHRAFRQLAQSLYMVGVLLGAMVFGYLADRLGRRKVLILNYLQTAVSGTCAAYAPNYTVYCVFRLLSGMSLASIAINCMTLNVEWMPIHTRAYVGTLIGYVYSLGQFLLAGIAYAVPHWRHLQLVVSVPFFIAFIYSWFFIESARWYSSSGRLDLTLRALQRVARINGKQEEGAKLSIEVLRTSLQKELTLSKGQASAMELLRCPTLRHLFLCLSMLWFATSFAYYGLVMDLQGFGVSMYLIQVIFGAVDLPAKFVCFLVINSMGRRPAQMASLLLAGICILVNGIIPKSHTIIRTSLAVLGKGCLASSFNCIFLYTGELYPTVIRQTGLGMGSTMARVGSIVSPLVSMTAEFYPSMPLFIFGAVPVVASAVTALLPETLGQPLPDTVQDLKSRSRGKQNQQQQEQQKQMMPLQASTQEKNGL
# measurement description: TP_TRANSPORTER: inhibition of PAH uptake in Xenopus laevis oocytes
reported endpoint: Ki (µM)
Reply with just the number (in µM).

{"columns": ["molecule", "Ki [µM]"],
 "data": [
  ["COc1ccc(Cl)cc1C(=O)NCCc1ccc(S(=O)(=O)NC(=O)NC2CCCCC2)cc1 [GLYBURIDE]", 1.6]
]}

## Task Given the molecule CCCNC(=O)NS(=O)(=O)c1ccc(Cl)cc1 [CHLORPROPAMIDE] , what is its reported Ki?
## Result 39.5

## Task Can you check CCCCNC(=O)NS(=O)(=O)c1ccc(C)cc1 [TOLBUTAMIDE] next?
## Result 55.5

## Task Then CC(C)[C@H]1CC[C@H](C(=O)N[C@H](Cc2ccccc2)C(=O)O)CC1 [NATEGLINIDE] ?
## Result 9.2
